Test system: B16F10 (mouse skin melanoma)
methodDescription: Light-activated killing of cell lines (IC50 with/without light)
Format: cell-based
statedConditions: B16-F10, 2 min, white light 2 minutes, read-out: Compound + light IC50
Excerpt: TABLE 15 depicts the IC50 of compounds in the presence or absence of light for human cell lines. […]
valueType: IC50 (nM)
Kindly provide the numeric value in nM only, without the unit symbol.

Q. Recorded IC50 for Clc1ccc(/C=C/c2[nH]c3ccccc3c2/C=C/c2ccc(Cl)cc2)cc1 [Compound 1] with B16F10 (mouse skin melanoma), please?
A. 410

----------
Tested on: A549 (human lung carcinoma)
methodDescription: Light-activated killing of cell lines (IC50 with/without light)
Assay type: cell-based
statedConditions: no light, read-out: Compound IC50
valueType: IC50 (µM)
Kindly provide the numeric value in µM only, without the unit symbol.

Q. Value lookup for IC50; key = Clc1ccc(/C=C/c2[nH]c3ccccc3c2/C=C/c2ccc(Cl)cc2)cc1
A. 17.4

----------
System: MRSA (ATCC BAA-44)
methodDescription: Synergy with oxacillin and norfloxacin and other antibiotics (colony counts)
Type: cell-based, S. aureus
statedConditions: increase in ability to kill MRSA versus drug or compound alone
valueType: Orders of Magnitude with Norfloxacin
// no unit string in output, number only

compound	Orders of Magnitude with Norfloxacin
Clc1ccc(Oc2c(-c3ccc(Cl)cc3)[nH]c3ccccc23)cc1	8

Q. Recorded Orders of Magnitude with Norfloxacin for Clc1ccc(/C=C/c2[nH]c3ccccc3c2/C=C/c2ccc(Cl)cc2)cc1 with MRSA (ATCC BAA-44), please?
A. 9

Q. Recorded Orders of Magnitude with Norfloxacin for Clc1ccc(Oc2c(-c3ccc(Cl)cc3)[nH]c3ccc(Cl)cc23)cc1 with MRSA (ATCC BAA-44), please?
A. 5

----------
System: MRSA
methodDescription: Minimum bactericidal concentration (MBC) with and without white light
Assay type: cell-based, S. aureus
statedConditions: Staphylococcus aureus, light or radiation study, no irradiation, read-out: MBC in the dark
Each entry below lists one item and its recorded MBC value.
Kindly provide the numeric value in µM only, without the unit symbol.

Here's what some known entries look like.
compound	MBC [µM]
Clc1ccccc1/C=C/c1[nH]c2ccccc2c1/C=C/c1ccccc1Cl [Compound 5]	200
Fc1ccc(/C=C/c2[nH]c3ccccc3c2/C=C/c2ccc(F)cc2)cc1 [Compound 4]	100
Clc1cccc(/C=C/c2[nH]c3ccccc3c2/C=C/c2cccc(Cl)c2)c1 [Compound 6]	200
COc1ccc(/C=C/c2[nH]c3ccccc3c2/C=C/c2ccc(OC)cc2)cc1 [Compound 3]	200
Clc1ccc(/C=C/c2[nH]c3ccccc3c2/C=C/c2ccc(Cl)cc2)cc1 [Compound 1]	200

Next item in the queue.
Q. Value lookup for MBC; key = C(=C\c1[nH]c2ccccc2c1/C=C/c1ccccc1)/c1ccccc1 [Compound 2]
A. 100

----------
Tested on: MRSA isolates (S. aureus ATCC 33591, BAA-44, BAA-1707, BAA-1717, BAA-1720, BAA-1747, BAA-1754, BAA-1761, BAA-1763, BAA-1764, BAA-1766)
methodDescription: Combination effects of compounds 7-11 and antibiotics on MRSA isolates (turbidity)
Format: cell-based
statedConditions: MRSA ATCC BAA-1707

molecule	combination effect with Oxacillin
Clc1ccc(/N=N/c2c[nH]c3ccccc23)cc1 [Compound 9]	Susceptible
Clc1ccc(Oc2c(-c3ccc(Cl)cc3)[nH]c3ccc(Cl)cc23)cc1 [Compound 11]	Susceptible
Brc1ccc(/N=N/c2c[nH]c3ccccc23)cc1 [Compound 8]	Susceptible
Clc1ccc(Oc2c(-c3ccc(Cl)cc3)[nH]c3ccccc23)cc1 [Compound 10]	Susceptible
